- Test system: Plasmodium berghei
- Assay procedure: Luciferase/luciferin-expressing antifolate-resistant parasites were used to infect a culture of HepG2 cells that were pre-incubated with compounds. Infected hepatocytes emit light due to the luciferase reaction. Assay results are presented as the percent inhibition of light emission compared to control. […]
- Type: functional
- Test context: sporozoite, HEPG2TOX_HILL_SLOPE 4.65, HEPG2TOX_R_SQUARED 0.952, PBLUC_HILL_SLOPE 26.5, PBLUC_R_SQUARED 0.19, read-out: LUCIFERASE INFECTION ASSAY - IC50
Readout kind: pIC50
Would you please state pIC50, meaning minus log10 of the concentration in mol/L, as a bare number?

Dear colleague, I am looking for the recorded pIC50 of the following compound: Cc1sc2ncnc(N/N=C/c3cn(-c4ccccc4)nc3-c3ccc4c(c3)OCCO4)c2c1C
5.48
